- METHOD_SUMMARY: Toxicity liver stage against HepG2, at 10uM
- Type: cell-based
- Design: test concentration 10 uM, cell line HepG2-A16-CD81EGFP
- EXPERIMENTAL_PARAMETERS: human, HepG2-A16-CD81EGFP cells; read-out: INHIBITION
OUTCOME_MEASURE: cytotoxicity at 10 µM (%)

COc1ccc(CCC(=O)Nc2ccc3ncn(C)c(=O)c3c2)cc1 :: 6.44
CCC1(CC)CC(=O)N(CC(O)c2cccc(F)c2)C1=O (stereo not given) :: -3.43
CS(=O)(=O)NC[C@H]1OC[C@@H]2CCN(C(=O)c3cccnc3)C[C@@H]21 :: 5.31
CCN1CCN(C(=O)NCc2ccccc2Cn2cncn2)CC1 :: 0.663
Cc1cc(CN2CCC(CNS(=O)(=O)c3c(C)noc3C)CC2)c(C)o1 :: 5.81
Cc1cc(CN2CCC(CNC(=O)C3(c4ccccc4)CC3)C2)[nH]n1 (stereo not given) :: -145
COC1COC2(CCN(C(=O)c3cscn3)CC2)C1 (stereo not given) :: 6.13
COCc1n[nH]/c(=N\C(=O)c2c3c(nc4onc(C)c24)CCC3)s1 :: -4.41
Cc1ccc(CN2CCn3c(C(=O)N(C)C)cnc3C2)s1 :: 5.97
CC(C)CN1CC(c2nc(-c3ccsc3)c[nH]2)CC1=O (stereo not given) :: 6.65
Cc1cc(C2CCCN(CCCS(C)(=O)=O)C2)n[nH]1 (stereo not given) :: -13.2
Cc1cccc(NC(=O)C2CCCN2C(=O)c2ccco2)c1C (stereo not given) :: -2.59
CCOC(C)C(=O)NCc1cccc(CN2CCCCCC2)c1 (stereo not given) :: 15.5
CCOc1ccc(CNC(=O)N2CCCC(CO)C2)cc1F (stereo not given) :: 8.21
O=C([C@H]1CCCO1)N1CCN(CCn2cccn2)c2ncccc2C1 :: -106
Cc1cn[nH]c1C1CCCN1Cc1ccc(F)c(F)c1 (stereo not given) :: 4.14
CCN1C(=O)CCCC12CCCN(C(=O)c1ccsc1)C2 (stereo not given) :: -153
O=C(c1ccncc1F)N1CC2CC1(C(=O)N1CCCC1)C2 :: -2.51
COc1ccc(NS(=O)(=O)c2cnc(NC(C)=O)s2)cc1 :: 10.9
O=C(c1cnccn1)N1CCCC2(COCCN(CC3CC3)C2)C1 (stereo not given) :: 1.39
CC(C)c1nc(C2CCCN2CCN2CCCCC2)no1 (stereo not given) :: -4.58
Cc1nc(CN2CCc3ncnc(-c4cccnc4)c3CC2)cs1 :: 7.51
CN1CCN(c2ccccc2CNC(=O)Cc2ccccc2F)CC1 :: -1.1
CC(O)CC(C)(C)CNC(=O)Nc1cnn(-c2ccccc2F)c1 (stereo not given) :: -3.27
CSCCCNC(=O)C(c1ccccc1C)N(C)C (stereo not given) :: 4.68
CCOC(=O)[C@H]1[C@@H](O)C(=O)N(C)C12CCN(C(=O)CC(C)(C)C)CC2 :: -4.1
O=C(COCc1ccccc1)Nc1ccccn1 :: -27.7
CS(=O)(=O)CCNC(=O)c1cc2ccccc2nc1N1CCCC1 :: -6.78
CCc1ncnc(N(C)CC2CCCCO2)c1F (stereo not given) :: 3.17
CC(C)CN(C)Cc1c[nH]nc1-c1ccc(F)cc1F :: 2.38

###

- METHOD_SUMMARY: Toxicity liver stage against HepG2, at 10uM
- Type: cell-based
- Set-up: test concentration 10 uM, cell line HepG2-A16-CD81EGFP
- EXPERIMENTAL_PARAMETERS: human, HepG2-A16-CD81EGFP cells; read-out: INHIBITION
OUTCOME_MEASURE: cytotoxicity at 10 µM (%)

O=C(c1ccoc1)N1CC[C@@H](N2CCOCC2)[C@@H]1Cc1ccccc1 :: -82
CC(C)CN1C(=O)C2(CCCC2)NC1c1cccnc1 (centres undefined) :: 3.71
CS(=O)(=O)N1CCC(N2CCCC2c2ccccn2)CC1 (centres undefined) :: -7.65
COc1ccc(CN2CC[C@@]3(C2)[C@H](O)CN(C)S3(=O)=O)cc1F :: -7.86
Cc1ccc(N2CCO[C@H]3CN(Cc4cnn(C)c4)C[C@H]32)nn1 :: 3.86
CCN(C)C[C@@H]1CN(S(=O)(=O)c2cccc(C#N)c2)C[C@@H]1CO :: 5.45
CCCS(=O)(=O)Nc1ccc2c(c1)OCC(C)(C)C(=O)N2C :: -10.8
CCN1CC2(CC1=O)CN(C(=O)N(C)C)CCN(S(C)(=O)=O)C2 (centres undefined) :: -0.757
Cc1nn(C(C)C)c(C)c1NC(=O)c1cccnc1 :: -1.57
O=C1CCCN1C1CCCN(CCOc2ccc(F)cc2)C1 (centres undefined) :: 7.62
COc1c(CNCc2ccc(Cn3cccn3)cc2)c(C)nn1C :: 35.5
CC(C(=O)O)N1CC2(CCC1=O)CCN(C/C=C/c1ccccc1)CC2 (centres undefined) :: -1.72
Clc1ccc(CN2CCC3(CC2)CC(c2cccnc2)=NO3)cc1 :: 17.5
CCC1CN(C)c2ccccc2CN1C(=O)Nc1ccc(C)cc1 (centres undefined) :: 4.01
COc1cc(N2CCCn3cnc(COCCO)c3C2)ncn1 :: -3.61
CN(Cc1nccn1C)S(=O)(=O)N1CCCC1c1ccco1 (centres undefined) :: 3.21
Cc1ccc(CN2CC[C@@H]3[C@@H](CO[C@H]3CN3CCN(C)CC3)C2)s1 :: 7.57
CNC(=O)c1cn2cc(-c3cccc(Cl)c3)n(CC=C(C)C)c(=O)c2n1 :: -52.8
CCN(CC)C(C(=O)Nc1ccc2c(c1)CCC(=O)N2)c1ccccc1 (centres undefined) :: 7.18
Cc1nn(C)c2nc(C3CC3)c(Cl)c(C(=O)O)c12 :: 7.44
O=C(NCc1ccccn1)NC1CCCN(c2ncccn2)C1 (centres undefined) :: 6.21
CN1[C@H](CN2CCCC2)C[C@@H]2CN(C(=O)c3cnccn3)CC[C@@H]21 :: 10.6
CCc1ccc(C(=O)N2CCN(c3nc(C)cc(OC)n3)CC2)o1 :: -18.7
CS(=O)(=O)N1CCN2C(=O)N(C3CCCCC3)C[C@H]2C1 :: 7.77
COc1cc(N(C)CCC(O)c2ccccc2)ncn1 (centres undefined) :: -139
Cc1cc2n(n1)CC(CNC1CCN(c3ccccn3)CC1)CN2 (centres undefined) :: 6.09
O=C(Cn1cccn1)N(CCO)CCSc1ccc(Cl)cc1 :: 0.513
Cc1occc1C(=O)N1CCC2(CCCN(CC3CCC3)C2=O)C1 (centres undefined) :: -5.47
Cn1ccnc1CNC(=O)Nc1ccc(OC2CCC2)c(F)c1 :: -4.92

###

- METHOD_SUMMARY: Toxicity liver stage against HepG2, at 10uM
- Assay type: cell-based
- Design: test concentration 10 uM, cell line HepG2-A16-CD81EGFP
- EXPERIMENTAL_PARAMETERS: human, HepG2-A16-CD81EGFP cells; read-out: INHIBITION
OUTCOME_MEASURE: cytotoxicity at 10 µM (%)

O=C1COC2(CCN(Cc3ccoc3)CC2)CN1CCn1cccn1 :: 6.95
O=C(NCc1ccc(C(=O)O)o1)c1ccc(F)cc1 :: 13.2
Cc1nsc(N2CCCN(C(=O)c3ccc4[nH]ccc4c3)CC2)n1 :: 0.997
O=C(N1CCCC1)N1CCN(Cc2cccnc2)c2ncccc2C1 :: 3.33
CC(C)(O)CCc1ccc(C(=O)NCCC2CCOC2)cc1 (stereo not given) :: 0.824
CCOCC(=O)Nc1nccn1Cc1ccccc1Cl :: -0.678
O=C1CN(c2ccc(CNC(=O)NCC3CCOC3)cc2)CCN1 (stereo not given) :: -1.96
Cc1cccc(-c2noc(CN3CCCC3Cn3cccn3)n2)c1 (stereo not given) :: 1.68
Cn1cc(CN2CCc3c(nnn3C)C2COCc2ccccc2)cn1 (stereo not given) :: -126
CCC(Nc1ncnc2sc(C(=O)O)c(C)c12)c1ccnn1C (stereo not given) :: 0.512
Cc1sc2ncnc(N3CCCC3Cn3cccn3)c2c1C (stereo not given) :: 2.62
O=C(Nc1cccc(N2CCOCC2)c1)N[C@H](CO)c1ccccc1 :: -8.1
CN1CCN2CCN(Cc3ccccc3Cn3cccn3)CC2C1 (stereo not given) :: -133
Cn1cc(I)c(C(=O)NC2CCCC2)n1 :: 5.53
COC(=O)CC(NC(=O)c1cccc(N2CCCC2=O)c1)c1cccs1 (stereo not given) :: -51.4
Cc1ccccc1C(O)c1ccncc1 (stereo not given) :: -4.84
CCc1ncc2c(n1)CN(Cc1nc(C)c(C)o1)CC2 :: 2.92
CC(=O)N1N=C(COc2ccc3c(c2)OCO3)OC1c1ccc(C)cc1 (stereo not given) :: 1.22
CC1(C(=O)N2CCC(n3cc(C4(O)CCCC4)nn3)CC2)CCCCC1 :: 0.68
Cc1nc2c(c(NCC(O)c3ccccc3Cl)n1)CCNCC2 (stereo not given) :: -2.88
c1c(CN2CCCC2)nc2n1CCNC2 :: 9.94
OCC1CCCN1c1cc(NCc2ccc(Cl)s2)ncn1 (stereo not given) :: -2.96
CN(C)CC1CN(c2ncnc3[nH]ccc23)CCO1 (stereo not given) :: 0.89
Cc1cc(C(=O)N2CCCCC2)ccc1NS(C)(=O)=O :: -1.4
Cc1cc(CN2CCN(C(=O)NCc3cccs3)CC2)on1 :: -1.68
Cc1cc(C)nc(CN(C)C(=O)c2ccccc2C2CCNC2)c1 (stereo not given) :: 1.64
Cc1cccc(C(C(=O)NCCCc2ccncc2)N(C)C)c1 (stereo not given) :: -8.38
Cn1ccc(C(=O)NCc2cccc(NC(=O)C3CCC3)c2)cc1=O :: -10
O=C(CC1CC1)N1CCC2(COCc3cnc(-c4cccnc4)nc32)C1 (stereo not given) :: -106
Cc1cc(C[C@@H]2COC[C@H]2NCc2ccc(C)c(C)c2)on1 :: 8.1
CCn1c(CN(C)C)nnc1C1CCN(Cc2ccccn2)CC1 :: 12.5
O=S(=O)(c1cn[nH]c1)N1CCCC1c1cc[nH]n1 (stereo not given) :: -23
Cc1ccccc1-c1noc(CN2CCOC(Cn3cccn3)C2)n1 (stereo not given) :: -5.04
CC(=O)N(C)Cc1cccc(NC(=O)CCCc2nc(C(C)C)no2)c1 :: -2.07
COCCN1C[C@H]2[C@@H](C1)N(C(=O)CCc1ccccc1)CC[C@H]2OC :: 4.78
